Molecular target: Avi-KRAS G12D (1-169) GppNHp/RAF1 RBD-3×FLAG (52-151) (Homo sapiens, UniProt P01116, G12D)
Construct: Avi-KRAS G12D (1-169) GppNHp
Sequence (P01116 1-169 isoform P01116-2 G12D limits assumed): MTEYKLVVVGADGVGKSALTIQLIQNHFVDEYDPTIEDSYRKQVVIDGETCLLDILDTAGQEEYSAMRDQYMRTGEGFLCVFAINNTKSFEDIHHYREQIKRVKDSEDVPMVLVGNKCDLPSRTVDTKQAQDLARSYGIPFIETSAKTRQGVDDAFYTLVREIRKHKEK
Assay: HTRF Raf1-KRAS G12D-GppNHp disruption assay
Conditions: 1 h incubation
pIC50: −log10 of the molar value.
Reported pIC50 is given for each of the following molecules.
property_measured: pIC50

- CN1CCC(c2nc(NCCN)c3cc(Cl)c(-c4ccc(F)c5sc(N)nc45)c(F)c3n2)CC1: 4.52 to 5.00
- CN(c1nc(OC[C@@H]2CCCN2C)nc2c(F)c(-c3ccc(F)c4sc(N)nc34)c(Cl)cc12)C1CN(C(=O)CN)C1: 4.52 to 5.00
- Nc1nc2c(-c3c(C(F)(F)F)cc4c(NC5CNC5)nc(OC[C@@]56CCCN5C[C@H](F)C6)nc4c3F)ccc(F)c2s1: 6.00 to 7.00
- Nc1nc2c(-c3c(C(F)(F)F)cc4c(NC5CC6CC[C@H](C5)N6)nc(OCC56CCCN5CCC6)nc4c3F)ccc(F)c2s1 (stereo partly shown): 6.00 to 7.00
- CN1C[C@H](F)C[C@H]1COc1nc(N2CCNCC2)c2cc(Cl)c(-c3ccc(F)c4sc(N)nc34)c(F)c2n1: 4.52 to 5.00
- CCN(c1nc(OC[C@@H]2CCCN2C)nc2c(F)c(-c3ccc(F)c4sc(N)nc34)c(Cl)cc12)C1CN(C(=O)CN)C1: 4.52 to 5.00
- Nc1nc2c(-c3c(C(F)(F)F)cc4c(N[C@H]5C[C@@H]6CC[C@H]5N6)nc(OCC56CCCN5CCC6)nc4c3F)ccc(F)c2s1 (atropisomer, axis not shown): 5.00 to 6.00
- N#Cc1c(N)sc2c(F)ccc(-c3c(C(F)(F)F)cc4c(N5CC6CCC(C5)N6)nc(OCC5(CN6CC[C@@H](F)C6)CC5)nc4c3F)c12: ≥ 7.00
- Nc1nc2c(-c3c(C(F)(F)F)cc4c(N5CC6CC5CN6)nc(OC[C@@]56CCCN5C[C@H](F)C6)nc4c3F)ccc(F)c2s1 (stereo partly shown) [Compound 239]: 5.00 to 6.00
- CN(c1nc(OC[C@@]23CCCN2C[C@H](F)C3)nc2c(Cl)c(-c3ccc(F)c4sc(N)nc34)c(C(F)(F)F)cc12)[C@@H]1CCNC1: 6.00 to 7.00
- Nc1nc2c(-c3c(C(F)F)cc4c(N5C[C@H]6CC[C@@H](C5)N6)nc(OC[C@@]56CCCN5C[C@H](F)C6)nc4c3Cl)ccc(F)c2s1: 6.00 to 7.00
- Nc1nc2c(-c3c(Cl)cc4c(N5CC6CC(C5)N6)nc(OCC56CCCN5CCC6)nc4c3F)ccc(F)c2s1: 6.00 to 7.00
- Nc1nc2c(-c3c(C(F)(F)F)cc4c(N5CCNCC5)ncnc4c3F)ccc(F)c2s1: 4.52 to 5.00
